Where these numbers come from: paper PMC2654063

substrate: Nc1ncnc2c1ncn2[C@@H]1O[C@H](COP(=O)(O)OP(=O)(O)OP(=O)(O)O)[C@@H](O)[C@H]1O; experiment: purified protein; type: biochemical, Saccharolobus solfataricus; conditions: with ssDNA; labelled compound
EXPERIMENTAL_ENDPOINT: kcat

PROTEIN | EXPERIMENTAL_ENDPOINT | EXPERIMENTAL_VALUE
SsoRadA (Sulfolobus solfataricus RadA) (Saccharolobus solfataricus P2; R72A) (protein, purified recombinant protein; homo-oligomeric nucleoprotein filament on ssDNA; F73, R72, R83 given) MSNEVEQKKNIKTINDLPGISQTVINKLIEAGYSSLETLAVASPQDLSVAAGIPLSTAQKIIKEARDALDIAFKTALEVKKERMNVKKISTGSQALDGLLAGGIETRTMTEFFGEFGSGKTQLCHQLSVNVQLPPEKGGLSGKAVYIDTEGTFRWERIENMAKALGLDIDNVMNNIYYIRAINTDHQIAIVDDLQELVSKDPSIKLIVVDSVTSHFRAEYPGRENLAVRQQKLNKHLHQLTRLAEVYDIAVIITNQVMARPDMFYGDPTVAVGGHTLYHVPGIRIQLKKSRGNRRIARVVDAPHLPEGEVVFALTEEGIRDAEE | kcat | 0.000183 ± 3.3e-05 s⁻¹
